- EXPERIMENT_SUMMARY: pKa
- Type: physicochemical

{"SMILES_RECORD": "O=C1c2cc(-c3ccc(OC(F)(F)F)cc3)ccc2OCCN1Cc1ncccn1", "pKa": "< 2"}

* * *

- EXPERIMENT_SUMMARY: Stable form screen of Compound I Form IV (slurry at room temperature)
- Type: physicochemical
- ASSAY_SETUP: slurry of the solid in solvent, organic solvent or mixture, thermodynamic from solid, EtOAc, read-out: Solubility after 24 h

{"COMPOUND": "CS(=O)(=O)O.O=C1c2cc(-c3ccc(OC(F)(F)F)cc3)ccc2OCCN1Cc1ncccn1 [Compound I Form IV]", "UNIT": "µg/mL", "solubility at 24 h": 1260}
